Target: SHP2-C SH2;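 also: peptide library displayed on the E. coli surface as eCPX fusions, selected cells deep-sequenced, score is each peptide's frequency after selection divided by its frequency in the input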
Assay: SH2 binding enrichment of the phosphorylated peptide, bacterial display (enrichment ratio); higher = better substrate or ligand; peptides without Tyr show the background
// reported SH2 binding enrichment for each item listed

- sequenceText: "RDSQIYAVDYE [MRPS34_Y34_L33I]"
  SH2 binding enrichment: 0.691
- sequenceText: "RREGVYRNNID [PTEN_Y46_L42R]"
  SH2 binding enrichment: 0.451
- sequenceText: "DEEDFYQGSME [ASCC1_Y36]"
  SH2 binding enrichment: 0.575
- sequenceText: "GQKVAYGGTGD [ALDH3A1_Y305]"
  SH2 binding enrichment: 0.608
- sequenceText: "SVVVPYEPREV [TP53_Y220_P223R]"
  SH2 binding enrichment: 0.532
- sequenceText: "QKMLDYLKEKK [RYR2_Y3780]"
  SH2 binding enrichment: 0.778
- sequenceText: "LNEQHYGGLTG [PGAM4_Y92_R90Q]"
  SH2 binding enrichment: 0.761
- sequenceText: "VNYGAYINDFN [GLB1_Y488_K493N]"
  SH2 binding enrichment: 1.05
- sequenceText: "KKLHKYNTQFQ [PIK3R1_Y452_E451K]"
  SH2 binding enrichment: 1.67
- sequenceText: "LLVVVYKFRCF [PSEN1_Y154_L153V_YF]"
  SH2 binding enrichment: 1.64
- sequenceText: "QEALEYFMKQI [PIK3CA_Y1038_M1043I]"
  SH2 binding enrichment: 0.926
- sequenceText: "PSSNLYFRWLT [CNGA3_Y168_YF]"
  SH2 binding enrichment: 1.15
- sequenceText: "DYTEAYNPKIK [CLK1_Y305]"
  SH2 binding enrichment: 0.584
- sequenceText: "TFEPNYGTVKR [RAPGEF6_Y1447_Q1452R_YF]"
  SH2 binding enrichment: 0.687
- sequenceText: "ETDSEYVKLSK [C7orf57_Y70_A74S]"
  SH2 binding enrichment: 0.588
- sequenceText: "KPMDTYFDSTR [DYNC2H1_Y2230_YF]"
  SH2 binding enrichment: 0.696
- sequenceText: "QVMDGYPIPIG [MMP14_Y353_M355I]"
  SH2 binding enrichment: 0.587
- sequenceText: "QRTMKYTTATE [MCCC1_Y41_G46E]"
  SH2 binding enrichment: 0.635
- sequenceText: "SSNLYYRWLTA [CNGA3_Y169]"
  SH2 binding enrichment: 0.763
- sequenceText: "QMVRMYASSFM [AVPR2_Y124_G122R_YF]"
  SH2 binding enrichment: 0.774
- sequenceText: "SFVMVYEGNAR [INSR_Y1038_G1035V]"
  SH2 binding enrichment: 0.942
- sequenceText: "REGKIYEYNQV [ZNF665_Y162_H157R]"
  SH2 binding enrichment: 0.611
- sequenceText: "DQVEQCKKELE [LMNA_Y259_Y259C]"
  SH2 binding enrichment: 0.937
- sequenceText: "PHRSIYFSSPK [MPG_Y75_Y71H]"
  SH2 binding enrichment: 0.609
- sequenceText: "HQEPVCSVAFS [TBL1X_Y509_Y509C]"
  SH2 binding enrichment: 0.591
- sequenceText: "FRDALYKSMVD [PHEX_Y250_F252S_YF]"
  SH2 binding enrichment: 0.735
- sequenceText: "RPASQYPHQVP [ADAM12_Y895_P893S]"
  SH2 binding enrichment: 0.791
- sequenceText: "RDIHDYIKHLG [UNC13C_Y308]"
  SH2 binding enrichment: 0.97
- sequenceText: "FLRTGYSIPFG [TGM1_Y370_V372I_YF]"
  SH2 binding enrichment: 1.62
- sequenceText: "STFVPYEIKVQ [L1CAM_Y784]"
  SH2 binding enrichment: 0.726
- sequenceText: "KKRSVYLKVLF [CC2D2A_Y683]"
  SH2 binding enrichment: 0.983
- sequenceText: "ARGMEYLASQK [FGFR2_Y616]"
  SH2 binding enrichment: 0.755
- sequenceText: "FFDANCDGKEF [MAPRE2_Y162_Y162C_YF]"
  SH2 binding enrichment: 3.8
- sequenceText: "EQMASYFGHSV [ITGA2B_Y319]"
  SH2 binding enrichment: 0.596
- sequenceText: "EVQKDYEHLFK [PAM16_Y77_N76D]"
  SH2 binding enrichment: 0.662
- sequenceText: "INSLKYAFNIS [EIF2B5_Y583_YF]"
  SH2 binding enrichment: 0.833
- sequenceText: "SVTYTYSPALN [TP53_Y126_C124Y]"
  SH2 binding enrichment: 0.717
- sequenceText: "CTLNVYRQLHN [LUZP1_Y1036_S1034N]"
  SH2 binding enrichment: 0.708
- sequenceText: "GRQGIYTENKR [GPR143_Y231_E235K]"
  SH2 binding enrichment: 0.762
- sequenceText: "FEEDSYSHIMA [FDPS_Y388_YF]"
  SH2 binding enrichment: 0.479
- sequenceText: "SCTFTYLLGDR [ETHE1_Y38]"
  SH2 binding enrichment: 0.729
- sequenceText: "GGCQEYTGAPF [NAXD_Y85_YF]"
  SH2 binding enrichment: 0.576
- sequenceText: "SLKAFYGEDAK [ALDH3A1_Y272_E270A]"
  SH2 binding enrichment: 0.663
- sequenceText: "CEHRGFLYLAI [TEK_Y897_Y897F]"
  SH2 binding enrichment: 1.14
- sequenceText: "TKDTFYKQPMV [GBA_Y451_F456V]"
  SH2 binding enrichment: 0.689
- sequenceText: "LVSCAYQVARG [FGFR1_Y605]"
  SH2 binding enrichment: 0.728
- sequenceText: "PPGRSYSPYDY [TNS1_Y793]"
  SH2 binding enrichment: 1.52
- sequenceText: "GGTTMYPGIAD [ACTC1_Y308]"
  SH2 binding enrichment: 0.783
- sequenceText: "SHNELYYEEAE [VANGL1_Y344]"
  SH2 binding enrichment: 0.931
- sequenceText: "DVSVVYSEVKT [FCRL4_Y493]"
  SH2 binding enrichment: 11.9
